Every entry's value here was drawn from PubChem BioAssay AID192.

# Tested on: BDF1 mice, B16 melanoma ip, median survival T/C
# PROCEDURE DETAILS: NCI In Vivo Anticancer Drug Screen. Data for tumor model B16 Melanoma (intraperitoneal) in B6D2F1 (BDF1) mice
# PARTICULARS: endpoint: median survival time; dose: 100.0 mg/kg/injection; schedule: Q01DX009 (ip); vehicle: saline; higher = longer survival
Inconclusive results and toxic doses are left out. Numbered stars: 1 amine (or outer) side, 2 acyl side, 3 side chain; on linkers, the order of the positions; unused ones are H or OH. Square brackets hold non-standard residues; d marks the D form. Peptide text beside a SMILES is read from it. γGlu = O=C(O)[CH](CCC(=O)[*:2])N[*:1]; Abu = CC[CH](N)C(=O)O
ATTRIBUTE MEASURED: T/C

// query For Nc1nc2n[nH]nc2c(=O)[nH]1 , what is its reported T/C?
// result 113 % of control

// query Another molecule to check: O=C1Nc2ccc(Cl)cc2C(c2ccccc2)=NC1O (centres undefined)
// result 95 % of control

// query Another molecule to look at: CN[C@@H]1[C@H](O)[C@H](NC)[C@H]2O[C@@]3(O)C(=O)C[C@@H](C)O[C@H]3O[C@@H]2[C@H]1O
// result 108 % of control

// query Please give the result for O=C(O)CCNCc1ccccc1 too.
// result 106 % of control

// query Now consider CC(NC(=O)C(C)NC(=O)C(N)CCC(=O)O)C(=O)O (stereo not drawn) (H-Glu-Ala-Ala-OH; configuration not given here) .
// result 96 % of control

// query Then what about the molecule CC(N)CN(C)C (centres undefined) ?
// result 102 % of control

// query Queued: C[Si](C)(O[Si](C)(C)c1ccccc1)c1ccccc1
// result 114 % of control

// query Cool, now NC(CSCCc1ccccn1)C(=O)O (centres undefined)
// result 110 % of control

// query Repeat with NC(=O)N1OCC(N)C1=O (centres undefined)
// result 103 % of control

// query Cool, now Cn1c(=O)c2c(ncn2CCO)n(C)c1=O
// result 120 % of control

// query Same read-out for CC/C(CC(C)CC)=N\O (centres undefined) ?
// result 100 % of control

// query Then NC(Cc1cc(Cl)c(O)c(Cl)c1)C(=O)O (centres undefined) ?
// result 94 % of control

// query Param item: O=S(=O)(O)c1cc(O)c2ccccc2c1
// result 107 % of control

// query How about this molecule: CC(=O)C(N)CCC(=O)O (centres undefined)
// result 113 % of control

// query Follow-up item: C#CCOCC(O)CCl (centres undefined)
// result 89 % of control

// query Same read-out for CC(C)NNC(=O)C(N)CCC(=O)O (centres undefined) ?
// result 95 % of control

// query Moving on to the next molecule: Cn1c(=O)c2c(ncn2C)n(C)c1=O
// result 103 % of control

// query CC(C)NCC(=O)c1ccc(O)c(O)c1 , same question.
// result 113 % of control

// query Same for CCC(N)C(=O)NC(C(N)=O)C(C)C (centres undefined) (H-[Abu]-Val-NH2; configuration not given here)
// result 100 % of control

// query Follow-up entry: Cc1cc(=O)[nH]o1
// result 106 % of control

// query Field entry: Nc1nc2c(c(=O)[nH]1)NC(CCNc1ccc(C(=O)NC(CCC(=O)O)C(=O)O)cc1)CN2 (centres undefined)
// result 110 % of control

// query Moving on to CSCCC(N)C(=O)NC(CC(N)=O)C(=O)O (stereo not drawn) (H-Met-Asn-OH; configuration not given here)
// result 96 % of control

// query Follow-up item: CC(=O)CC(=O)N1CCN(C(=O)CC(C)=O)CC1
// result 87 % of control

// query Query NC(N)=NCCCC(N)C(=O)NC(CCC(=O)O)C(=O)O (stereo not drawn) (H-Arg-Glu-OH; configuration not given here) next
// result 104 % of control

// query Lookup Nc1ccn(C2OC(CO)C(O)C2O)c(=O)n1 (centres undefined)
// result 97 % of control

// query Okay, and CCCCCCCCCCCCO[P+](=O)OCCCCCCCCCCCC ?
// result 88 % of control

// query Could you do the same for O=C(O)c1ccc(O)c([N+](=O)[O-])c1 , please?
// result 115 % of control

// query Same read-out for CCN(C=O)CC ?
// result 117 % of control

// query Try this molecule too: NC(=O)C1(N2CCCCC2)CCN(CCCC(=O)c2ccc(F)cc2)CC1
// result 105 % of control

// query Same read-out for CCN(CC)CCNC1CCCCC1 ?
// result 98 % of control

// query # iterate: NC(CCC(=O)NC(CCC(=O)O)C(=O)NC(CCC(=O)O)C(=O)O)C(=O)O (stereo not drawn) (γGlu-Glu-Glu-OH; configuration not given here)
// result 96 % of control

// query Do the same for COc1cc2c(c(OC)c1OC)-c1ccc(SC)c(=O)cc1[C@@H](NC1OC(CO)C(O)C(O)C1O)CC2 (some centres undefined) please
// result 120 % of control

// query Same read-out for O=C(O)C(O)C(O)C1[O][Sb][O]C1CO (centres undefined) ?
// result 100 % of control

// query Now this one: Cc1cn(C2CC(F)C(CO)O2)c(=O)[nH]c1=O (centres undefined)
// result 97 % of control

// query Queued: CC(N)Cc1ccc(O)cc1 (centres undefined)
// result 105 % of control

// query Field entry: CCOc1cc[n+]([O-])cc1
// result 104 % of control

// query Next up: C/C=C(/C)C(=O)O[C@H]1CC[N+]2([O-])CC=C(COC(=O)[C@@](O)([C@H](C)OC)C(C)(C)O)[C@H]12 (some centres undefined)
// result 107 % of control

// query Now give it for NC(=O)Nc1n[nH]c(-c2ccccc2)n1 too.
// result 86 % of control

// query // query: C/C=C/C=C\C1OC(O)([C@H](CC)C(=O)NC/C=C/C=C(\C)[C@H](OC)C(C)C2OC(\C=C/C=C/C=C(\C)C(=O)c3c(O)ccn(C)c3=O)[C@H](O)[C@@H]2O)C(O)C(O)C1(C)C (some centres undefined)
// result 91 % of control
